Where do the numbers come from? From ChEMBL document CHEMBL6153021.

test: Cmax in Sprague-Dawley rat at 5 mg/kg, iv by HPLC-UV analysis; assay type: ADME, organism-based; details: in vivo
measurementName: Cmax
Your reply should be a number followed by the unit it is expressed in.

# query: Cmax of entry `COc1ccc(Nc2ncc(Br)c(Nc3ccc(OCCN(C)C)cc3C(N)=O)n2)cc1`
1810 ng/mL

----------
biological target: Mitogen-activated protein kinase 8 (Homo sapiens, UniProt P45983); experiment: Inhibition of N-terminal GST-tagged human recombinant full length JNK1expressed in baculovirus-infected Sf9 cells using p38 substrate and ATP as substrate at 10 nM incubated for 5 hrs by ADP-Glo Kinase assay
Sequence (P45983 whole entry): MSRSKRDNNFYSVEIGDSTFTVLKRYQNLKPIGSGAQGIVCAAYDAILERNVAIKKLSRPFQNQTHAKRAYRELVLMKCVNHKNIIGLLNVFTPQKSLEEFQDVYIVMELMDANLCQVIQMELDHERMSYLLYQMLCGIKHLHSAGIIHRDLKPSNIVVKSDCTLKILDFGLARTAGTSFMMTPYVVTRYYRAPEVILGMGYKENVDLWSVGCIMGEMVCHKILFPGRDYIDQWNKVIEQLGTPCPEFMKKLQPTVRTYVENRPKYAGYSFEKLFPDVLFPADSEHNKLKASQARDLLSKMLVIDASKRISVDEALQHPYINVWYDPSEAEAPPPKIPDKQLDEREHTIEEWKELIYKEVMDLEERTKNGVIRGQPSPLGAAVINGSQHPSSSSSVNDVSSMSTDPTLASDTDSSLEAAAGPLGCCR
Active and inactive are the calls of the source. The rule behind the calls is not given here.
measurementName: inhibition

Solved cases (4 shown):
CCNC(=O)c1ccccc1Nc1nc(Nc2ccccc2)ncc1Br : 10.4%
O=C(NC1CCCC1)c1ccccc1Nc1nc(Nc2ccccc2)ncc1Br : inactive
CN(C)CCOc1ccc(Nc2nc(Nc3ccccc3)ncc2Br)c(C(N)=O)c1 : 81.5%
NC(=O)c1cc(OCCN2CCC2)ccc1Nc1nc(Nc2ccccc2)ncc1Br : 43.5%

# query: inhibition of entry `CCN1CCN(CCOc2ccc(Nc3nc(Nc4ccccc4)ncc3Br)c(C(N)=O)c2)CC1`
85.7%

Next entry: `CC(C)S(=O)(=O)c1ccccc1Nc1nc(Nc2ccccc2)ncc1Br`
28.8%

Next entry: `O=C(NC1CCCCC1)c1ccccc1Nc1nc(Nc2ccccc2)ncc1Br`
inactive

Next entry: `NC(=O)CCNC(=O)c1ccccc1Nc1nc(Nc2ccccc2)ncc1Br`
inactive
